- SYSTEM: Protein RecA (Mycobacterium tuberculosis)
- Sequence (P9WHJ3 whole entry): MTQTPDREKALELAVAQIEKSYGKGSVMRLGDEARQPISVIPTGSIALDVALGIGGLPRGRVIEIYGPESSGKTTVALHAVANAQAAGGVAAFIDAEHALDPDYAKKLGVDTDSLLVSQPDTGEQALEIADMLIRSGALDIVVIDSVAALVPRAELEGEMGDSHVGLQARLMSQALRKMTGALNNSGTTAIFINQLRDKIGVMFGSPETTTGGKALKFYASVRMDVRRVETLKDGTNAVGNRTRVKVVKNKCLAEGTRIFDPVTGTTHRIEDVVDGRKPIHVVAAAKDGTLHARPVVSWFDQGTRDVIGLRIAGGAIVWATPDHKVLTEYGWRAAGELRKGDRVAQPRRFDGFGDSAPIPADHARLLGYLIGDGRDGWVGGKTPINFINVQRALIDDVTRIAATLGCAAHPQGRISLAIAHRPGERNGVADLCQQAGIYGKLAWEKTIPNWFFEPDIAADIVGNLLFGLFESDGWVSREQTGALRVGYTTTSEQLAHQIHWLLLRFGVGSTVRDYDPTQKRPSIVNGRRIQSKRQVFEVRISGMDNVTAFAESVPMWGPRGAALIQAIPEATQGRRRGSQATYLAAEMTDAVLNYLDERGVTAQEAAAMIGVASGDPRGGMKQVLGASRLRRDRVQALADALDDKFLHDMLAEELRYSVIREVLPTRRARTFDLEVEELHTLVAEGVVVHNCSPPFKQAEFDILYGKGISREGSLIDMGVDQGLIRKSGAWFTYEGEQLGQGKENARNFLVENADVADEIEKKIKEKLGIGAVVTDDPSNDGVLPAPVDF
- TEST PROTOCOL: Fluorescence Cell-Free Homogeneous Dose Retest to Identify Inhibitors of RecA-Intein Splicing Activity. [Related pubchem assays (depositor defined):AID2097, AID2223, AID489010, AID492950]
- Format: functional
Counter-ions that a name gives are not always drawn. Calls of active or inactive are those of the source. Cut-off read from the data, not from the text of the source: actives have a measured EC50 and inactives only a lower limit.
Labels: t = active, f = inactive

{"columns": ["MOLECULE", "CLASSIFICATION"],
 "data": [
  ["CC(=O)OCCN(C)c1cc(SC(C)C)c2nonc2c1[N+](=O)[O-]", "f"],
  ["CCOc1ccc(-c2[nH]nc3c2C(c2ccc(O)cc2)C(C#N)=C(N)O3)cc1 (centres undefined)", "t"],
  ["CCOc1cc(C(c2c(C)n[nH]c2O)c2c(C)n[nH]c2O)ccc1OC(=O)c1cccc([N+](=O)[O-])c1", "t"],
  ["Cc1c(/C=N/Nc2nc3ccccc3[nH]2)c2ccccc2n1C", "t"],
  ["CCCCCCCCCCOC(=O)C[n+]1c(COc2ccc(C)cc2)n(C)c2ccccc21", "t"],
  ["CC1=NNC(=O)/C1=C\\c1cn(-c2ccccc2)nc1-c1ccc(F)cc1", "t"],
  ["O=C(CN1C(=O)/C(=C2\\SC(=S)N(CCS(=O)(=O)O)C2=O)c2ccccc21)Nc1cccc(Br)c1", "t"],
  ["SC1=NCCC12C(S)=Nc1ccccc12 (centres undefined)", "f"],
  ["CC[C@@H](CO)NC(=O)[C@@H]1C=C2c3cccc4c3c(cn4C)C[C@H]2N(C)C1 [METHYSERGIDE MALEATE]", "t"]
]}
